Tested on: CCRF-CEM leukemia
Test: NCI-60 one-dose screen, 48 h
Details: 10 µM unless noted
This is part of a sample that, as a whole, favours compounds with a hit. Of some 83,000 tested, about 20% had one in any assay. Calls of active or inactive are those of the source. The calls were made as follows: active = growth percent below 10; inactive = the rest.
Thanks in advance; please answer with one of these: active, inactive

Here's what some known entries look like.
compound=COc1cc(-c2cc3cc(O)ccc3oc2=O)cc(OC)c1OC category_label=inactive
compound=O=C1c2cccc3cccc(c23)C(=O)N1CC#Cc1ccc2c3c(cccc13)C(=O)N(CCN1CCNCC1)C2=O category_label=active
compound="CCCCC/C(=C\\c1ccccc1)C1OC(C)C(C)O1 (stereo unspecified)" category_label=inactive
compound=CCNCCCn1c2c(c3ccc([N+](=O)[O-])cc3c1=O)C(=O)c1cc(OC)cnc1-2 category_label=active
compound=COC(=O)CCCCCn1c2ccccc2c2c3c(c4c5ccccc5[nH]c4c21)C(=O)N(O)C3=O category_label=inactive
compound=CN1CCN(CCOc2ccc(-c3cnc4c(-c5ccccc5F)cnn4c3)cc2)CC1 category_label=active
compound=Nc1c(C(=O)Nc2cccc3ccccc23)sc2nc3c(cc12)CCCC3 category_label=inactive
compound="CCCC1CCCCN1C(=O)OCC(C)C (stereo unspecified)" category_label=inactive

Inquiry: Kindly provide the recorded test outcome for the following compound: O=Cc1nc2ccccc2[nH]1
Reply text: inactive

Inquiry: Kindly provide the recorded test outcome for the following compound: Fc1ccc(NCc2nnc(-c3ccc(Cl)cc3)o2)cc1
Reply text: inactive

Inquiry: Kindly provide the recorded test outcome for the following compound: Fc1ccc(Nc2nnc(-c3ccc(Cl)cc3)o2)cc1
Reply text: inactive

###

Provide the recorded growth for the entries that follow.
System: HT29 colon
Experiment: NCI-60 one-dose screen, 48 h (100 = growth as untreated, 0 = no growth, -100 = all killed)
Conditions: 10 µM unless noted
Protocol: Growth inhibition of the HT29 human tumor cell line is measured as a screen for anti-cancer activity. Cells are grown in 96 well plates and exposed to the test compound for 48 hours. Compounds are tested at a single concentration, which is 10^-5 M for most compounds. The reported endpoint is percent growth (GI% or GIPRCNT), where numbers from 0 - 100% represent growth inhibition, and numbers from -100% - 0 represent cell death. For example, a value of 40 represents 60% growth inhibition. […]
The panel holds about 83,000 compounds, 20% with a hit somewhere; the sample as a whole holds those more often.
One number for each entry, in %.

compound="CN(C)CCCC1(c2ccc(F)cc2)OCc2cc(-c3ccc(C(F)(F)F)nc3)ccc21 (centres undefined)" measurement_target="HT29 colon" measurement_type=growth quantitative_readout=64.8
compound=Cn1cc(-c2nc(-c3c[nH]c4ncccc34)cs2)c2cc(F)ccc21 measurement_target="HT29 colon" measurement_type=growth quantitative_readout=19.6
compound=Cn1cc(-c2csc(-c3cn(CCN)c4ccc(Br)cc34)n2)c2cccnc21 measurement_target="HT29 colon" measurement_type=growth quantitative_readout=47.2

Inquiry: Complete the entry with growth for CC1(C)C(=O)/C(=C\c2ccccn2)C[C@]2(C)[C@H]3CC[C@@H]4[C@@H](C(=O)/C=C/c5ccccn5)CC[C@@]4(C)[C@]3(C)CC[C@@H]12
Reply text: -13.6

###

System: SF-539 CNS
Assay: NCI-60 one-dose screen, 48 h (100 = growth as untreated, 0 = no growth, -100 = all killed)
Conditions: 10 µM unless noted
This is part of a sample that, as a whole, favours compounds with a hit. Of some 83,000 tested, about 20% had one in any assay.
Please assign 0 (no) whenever growth is at or above 80%, and 1 (yes) whenever it is below.

Here's what some known entries look like.
molecule=O=C1Nc2ccccc2/C1=C/c1cn(CCCn2c3ccccc3c(=O)c3ccccc32)c2ccccc12 category_label="0 (no)"
molecule=Cc1cc(C=O)c(C)c2c1[nH]c1ccccc12 category_label="0 (no)"
molecule=CCN1CCN(C(=O)[C@]23CC[C@@H](C)[C@H](C)[C@H]2C2=CC[C@@H]4[C@@]5(C)C/C(=C/c6cccc(OC)c6OC)C(=O)C(C)(C)[C@@H]5CC[C@@]4(C)[C@]2(C)CC3)CC1 category_label="1 (yes)"

Inquiry: # TODO verify growth < 80% strictly for this molecule: CC(=O)NC1=C(C#N)C(c2ccccc2Cl)c2c(ccc3ccccc23)O1 (centres undefined)
Reply text: 1 (yes)

Inquiry: # TODO verify growth < 80% strictly for this molecule: CN(C)c1ccc(N)c2ccccc12
Reply text: 1 (yes)

Inquiry: # TODO verify growth < 80% strictly for this molecule: COc1cccc(-c2nn(-c3ccccc3)cc2-c2ccnc(NCCCNS(=O)(=O)c3cccc(F)c3)c2)c1
Reply text: 1 (yes)

Inquiry: # TODO verify growth < 80% strictly for this molecule: C=C1CC[C@@H](C(=O)OC)Cc2nc(C)ccc21
Reply text: 0 (no)

Inquiry: # TODO verify growth < 80% strictly for this molecule: Cn1c(=O)c2c(ncn2CC(=O)Nc2ccc(S(N)(=O)=O)cc2)n(C)c1=O
Reply text: 0 (no)
